Provenance of the data: patent US20220356186A1

Tested system: EIF2AK3 (PERK) catalytic domain (amino acids 536-1116) (Homo sapiens, UniProt Q9NZJ5)
Construct: EIF2AK3 (PERK) catalytic domain (amino acids 536-1116)
Sequence (Q9NZJ5 536-1116): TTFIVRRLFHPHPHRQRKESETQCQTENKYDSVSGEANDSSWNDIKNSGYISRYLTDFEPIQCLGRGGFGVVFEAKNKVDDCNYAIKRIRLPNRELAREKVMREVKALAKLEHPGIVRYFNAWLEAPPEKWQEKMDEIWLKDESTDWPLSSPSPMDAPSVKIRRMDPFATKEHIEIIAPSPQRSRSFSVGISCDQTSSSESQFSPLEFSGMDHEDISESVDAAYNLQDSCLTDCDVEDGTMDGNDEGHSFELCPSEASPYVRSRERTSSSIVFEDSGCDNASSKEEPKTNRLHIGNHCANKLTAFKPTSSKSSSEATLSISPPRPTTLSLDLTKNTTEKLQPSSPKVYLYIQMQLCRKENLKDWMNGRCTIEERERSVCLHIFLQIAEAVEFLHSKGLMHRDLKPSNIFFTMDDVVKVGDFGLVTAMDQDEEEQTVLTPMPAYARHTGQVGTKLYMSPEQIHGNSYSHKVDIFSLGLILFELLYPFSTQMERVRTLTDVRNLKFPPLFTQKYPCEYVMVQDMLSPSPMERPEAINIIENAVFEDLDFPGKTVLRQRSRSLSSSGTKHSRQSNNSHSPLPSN
Assay protocol: PERK in vitro activity assay (isolated), TR-FRET kinase assay
Assay type: biochemical
Run parameters: isolated PERK enzyme, 1.5 μM ATP; read-out: Biochemical IC50
Source text: PERK In Vitro Activity Assay (Isolated): […] Express and purify HIS-SUMO-GCN2 catalytic domain (amino acids 584-1019) from E. coli. […] Monitor the resulting fluorescence in an EnVison® Multilabel reader (PerkinElmer, Waltham, Mass.). […]
Record form. Attribute: IC50. Fill in for each entry.

Per the reported EIF2AK3 (PERK) catalytic domain (amino acids 536-1116) (Homo sapiens, UniProt Q9NZJ5) data, COC(C(=O)Nc1ccc(-c2cn(C)c3ncnc(N)c23)c(C)c1)c1ccccc1 (stereo not shown) has IC50 of 1 to 25 nM

I looked up Cc1nc(N)c2c(-c3ccc(NC(=O)C(O)c4cccc(Cl)c4)cc3F)cn(C)c2n1 (stereo not shown) [Example 81] and its IC50 for EIF2AK3 (PERK) catalytic domain (amino acids 536-1116) (Homo sapiens, UniProt Q9NZJ5) was 51 to 100 nM

Item: Cc1cc(F)cc(C(O)C(=O)Nc2ccc(-c3cn(C)c4nc(C)nc(N)c34)c(C)c2)c1 (stereo not shown) [Example 57] | System: EIF2AK3 (PERK) catalytic domain (amino acids 536-1116) (Homo sapiens, UniProt Q9NZJ5) | IC50: 26 to 50 nM

Bench note, EIF2AK3 (PERK) catalytic domain (amino acids 536-1116) (Homo sapiens, UniProt Q9NZJ5): Cc1cccc(C(O)C(=O)Nc2ccc(-c3cn(C)c4ncnc(N)c34)c(C)c2)n1 (stereo not shown) , IC50 reads 1 to 25 nM

IC50 of Cc1nc(N)c2c(-c3ccc(NC(=O)C(O)c4cccc(F)c4)c(F)c3F)cn(C)c2n1 (single isomer, unassigned) [Example 109] , assay on EIF2AK3 (PERK) catalytic domain (amino acids 536-1116) (Homo sapiens, UniProt Q9NZJ5), is 251 to 500 nM

Lab entry: EIF2AK3 (PERK) catalytic domain (amino acids 536-1116) (Homo sapiens, UniProt Q9NZJ5) assay, compound Cn1cc(-c2ccc(NC(=O)C(O)c3cccc(F)c3)cc2)c2c(N)ncnc21 (stereo not shown) [Example 29] , IC50 = 1 to 25 nM

Lab entry: EIF2AK3 (PERK) catalytic domain (amino acids 536-1116) (Homo sapiens, UniProt Q9NZJ5) assay, compound Cc1cccc(C(O)C(=O)Nc2ccc(-c3cn(C)c4nc(C)nc(N)c34)c(Cl)c2)c1 (stereo not shown) [Example 96] , IC50 = 1 to 25 nM

The recorded IC50 with EIF2AK3 (PERK) catalytic domain (amino acids 536-1116) (Homo sapiens, UniProt Q9NZJ5) for Cc1nc(N)c2c(-c3ccc(NC(=O)C(O)c4cccc(Cl)c4)cc3C)cn(C)c2n1 (stereo not shown) [Example 37] was 1 to 25 nM

For the compound Cc1nc(N)c2c(-c3ccc(NC(=O)C(O)c4cccc(F)c4)cc3)cn(C)c2n1 (stereo not shown) [Example 24] , the measured IC50 on EIF2AK3 (PERK) catalytic domain (amino acids 536-1116) (Homo sapiens, UniProt Q9NZJ5) was 26 to 50 nM

Test item Cc1nc(N)c2c(-c3ccc(NC(=O)C(O)c4cccc(C(F)(F)F)c4)cc3Cl)cn(C)c2n1 (stereo not shown) [Example 102] ; EIF2AK3 (PERK) catalytic domain (amino acids 536-1116) (Homo sapiens, UniProt Q9NZJ5); reported IC50 was 101 to 250 nM

Known value: EIF2AK3 (PERK) catalytic domain (amino acids 536-1116) (Homo sapiens, UniProt Q9NZJ5) IC50 of the compound Cc1cc(NC(=O)Cc2cncc3ccccc23)ccc1-c1cn(C)c2ncnc(N)c12 equals 26 to 50 nM

Bench note, EIF2AK3 (PERK) catalytic domain (amino acids 536-1116) (Homo sapiens, UniProt Q9NZJ5): Cc1nc(N)c2c(-c3ccc(NC(=O)C(O)c4cccc(C(F)(F)F)c4)cc3C)cn(C)c2n1 (stereo not shown) [Example 50] , IC50 reads 1 to 25 nM

Reading of IC50 for CCc1cc(F)cc(C(O)C(=O)Nc2ccc(-c3cn(C)c4nc(C)nc(N)c34)c(C)c2)c1 (stereo not shown) [Example 58] with EIF2AK3 (PERK) catalytic domain (amino acids 536-1116) (Homo sapiens, UniProt Q9NZJ5): 1 to 25 nM

Observed IC50 on EIF2AK3 (PERK) catalytic domain (amino acids 536-1116) (Homo sapiens, UniProt Q9NZJ5), entry Cc1cc(NC(=O)Cc2ccc3ccccc3c2)ccc1-c1cn(C)c2ncnc(N)c12 , equals 1 to 25 nM

Form field IC50 for item Cn1cc(-c2ccc(NC(=O)C(O)c3cccc(F)c3)cc2F)c2c(N)ncnc21 (single isomer, unassigned) [Example 3] on EIF2AK3 (PERK) catalytic domain (amino acids 536-1116) (Homo sapiens, UniProt Q9NZJ5): 1 to 25 nM

Bench note, EIF2AK3 (PERK) catalytic domain (amino acids 536-1116) (Homo sapiens, UniProt Q9NZJ5): entry Cc1cc(NC(=O)C(N)c2ccccc2)ccc1-c1cn(C)c2ncnc(N)c12 (stereo not shown) , its IC50 = 101 to 250 nM
